Tested on: batrachotoxin (BTX) binding site of the sodium channel
Experiment: Affinity for the batrachotoxin (BTX) binding site of the sodium channel, [3H]-batrachotoxinin A20 α-benzoate, rat cerebrocortex synaptosomes
Details: test concentration not given
READOUT_TYPE: BTX inhibition (rat) % inhibition (%)
Your answer should be a plain number; it is taken to be in %.

Illustrative cases are given below, each with its answer.
COMPOUND	EXPERIMENTAL_TARGET	BTX inhibition (rat) % inhibition / %
COc1ccc(NC(=O)N2CCc3onc(C(=O)NCc4ccccc4)c3C2)cc1	batrachotoxin (BTX) binding site of the sodium channel	36
CCOC(=O)c1cccc(NC(=O)N2CCc3onc(C(=O)NCc4ccc(C)o4)c3C2)c1	batrachotoxin (BTX) binding site of the sodium channel	46
Cc1ccc(NC(=O)N2CCc3onc(C(=O)NCc4cccs4)c3C2)cc1[N+](=O)[O-]	batrachotoxin (BTX) binding site of the sodium channel	43
Cc1cc(C(=O)N2CCc3onc(C(=O)NCCN4CCOCC4)c3C2)ccc1Br	batrachotoxin (BTX) binding site of the sodium channel	42
O=C(NC(=S)N1CCc2onc(C(=O)NCCN3CCCC3)c2C1)c1ccccc1	batrachotoxin (BTX) binding site of the sodium channel	74

Reported BTX inhibition (rat) % inhibition, compound "O=C(c1noc2c1CN(S(=O)(=O)c1ccccc1)CC2)N1CCN(CC=Cc2ccccc2)CC1" : ____ 70

Follow-up entry: CC(C)CNC(=O)c1noc2c1CN(C(=O)C(NC(=O)OCc1ccccc1)c1ccccc1)CC2 (centres unmarked) 88

Follow-up entry: "Cc1ccc(S(=O)(=O)N2CCc3onc(C(=O)N4CCN(CCC5CCCCC5)CC4)c3C2)cc1" 69

---

System: batrachotoxin (BTX) binding site of the sodium channel
Test: Affinity for the batrachotoxin (BTX) binding site of the sodium channel, [3H]-batrachotoxinin A20 α-benzoate, rat cerebrocortex synaptosomes
Conditions: test concentration not given
READOUT_TYPE: BTX inhibition (rat) % inhibition
Numeric answer plus unit only.

ENTRY_SMILES	BTX inhibition (rat) % inhibition
O=C(c1noc2c1CN(S(=O)(=O)c1ccc(Cl)c(Cl)c1)CC2)N1CCC(CCN2CCCC2)CC1	70%
O=C(NCCc1ccccc1)c1noc2c1CN(C(=S)Nc1c(F)c(F)c(F)c(F)c1F)CC2	58%

Reported BTX inhibition (rat) % inhibition, compound "O=C(NCCN1CCCC1)c1noc2c1CN(S(=O)(=O)c1cccc(Cl)c1)CC2" : ____ 76%

Follow-up entry: "O=C(Nc1ccccc1)c1noc2c1CN(C(=O)c1ccccc1F)CC2" 26%

Follow-up entry: "O=C(Nc1ccccc1)c1noc2c1CN(C(=O)Nc1ccc(OC(F)(F)F)cc1)CC2" 73%

Follow-up entry: "Cc1cc(C(=O)N2CCc3onc(C(=O)NCCN4CCCC4)c3C2)ccc1Br" 73%

Follow-up entry: "O=C(NCCc1ccccc1Cl)c1noc2c1CN(S(=O)(=O)c1cc(Cl)ccc1Cl)CC2" 44%

Follow-up entry: "Cc1ccc(N2CCN(C(=O)c3noc4c3CN(S(=O)(=O)c3cc(Cl)ccc3Cl)CC4)CC2)c(C)c1" 49%

---

Tested on: batrachotoxin (BTX) binding site of the sodium channel
Assay: Affinity for the batrachotoxin (BTX) binding site of the sodium channel, [3H]-batrachotoxinin A20 α-benzoate, rat cerebrocortex synaptosomes
Settings: test concentration not given
Please mark 1.0 if the recorded BTX inhibition (rat) % inhibition is equal to or greater than 60%, and 0.0 if it falls below.

The following molecules have reported results that may help.
MOLECULE	EXPERIMENTAL_TARGET	CLASS_LABEL
Cc1ccc(NC(=O)N2CCc3onc(C(=O)NCCc4ccccc4)c3C2)cc1[N+](=O)[O-]	batrachotoxin (BTX) binding site of the sodium channel	1.0
O=C(c1noc2c1CN(S(=O)(=O)c1cccc3ccccc13)CC2)N1CCN(c2nccs2)CC1	batrachotoxin (BTX) binding site of the sodium channel	0.0
O=C(NC1CCCC1)c1noc2c1CN(C(=O)NCc1ccc(F)cc1)CC2	batrachotoxin (BTX) binding site of the sodium channel	1.0

Please tell me: is the molecule O=C(NCCN1CCCC1)c1noc2c1CN(C(=O)COc1cccc(Cl)c1)CC2 [Example 155] at or over 60% in terms of BTX inhibition (rat) % inhibition? 1.0

Follow-up entry: "O=C(NCCc1ccccc1)c1noc2c1CN(C(=O)Nc1cccc(F)c1)CC2" 1.0

---

Tested on: batrachotoxin (BTX) binding site of the sodium channel
Assay: Affinity for the batrachotoxin (BTX) binding site of the sodium channel, [3H]-batrachotoxinin A20 α-benzoate, rat cerebrocortex synaptosomes
Conditions: test concentration not given
READOUT_TYPE: BTX inhibition (rat) % inhibition
Numeric answer plus unit only.

Illustrative cases are given below, each with its answer.
MOLECULE	EXPERIMENTAL_TARGET	RESULT
CN(C)S(=O)(=O)N1CCc2onc(C(=O)NCCc3ccc(Cl)cc3)c2C1 [Example 76]	batrachotoxin (BTX) binding site of the sodium channel	41%
O=C(c1noc2c1CN(S(=O)(=O)c1ccc(OC(F)(F)F)cc1)CC2)N(CCc1ccccc1)Cc1ccccc1 [Example 32]	batrachotoxin (BTX) binding site of the sodium channel	59%
CC12CCC(C(=O)N3CCc4onc(C(=O)NCCN5CCCC5)c4C3)(OC1=O)C2(C)C (centres unmarked) [Example 51]	batrachotoxin (BTX) binding site of the sodium channel	42%
Cc1cc(C)c(S(=O)(=O)N2CCc3onc(C(=O)N4CCN(c5nccs5)CC4)c3C2)c(C)c1 [Example 141]	batrachotoxin (BTX) binding site of the sodium channel	67%
Cl.O=C(c1noc2c1CN(S(=O)(=O)c1cccc3ccccc13)CC2)N1CCC(CCN2CCCC2)CC1 [Example 149]	batrachotoxin (BTX) binding site of the sodium channel	86%

Reported BTX inhibition (rat) % inhibition, molecule Cc1ccc(NC(=O)c2noc3c2CN(S(=O)(=O)c2ccc(C)cc2)CC3)cc1 [Example 152] : ____ 29%

Follow-up entry: O=C(c1noc2c1CN(S(=O)(=O)c1cc(Cl)ccc1Cl)CC2)N(CCc1ccccc1)Cc1ccccc1 [Example 59] 58%

Follow-up entry: O=C(NCCN1CCOCC1)c1noc2c1CN(S(=O)(=O)c1cc(Cl)c(Cl)s1)CC2 [Example 63] 55%

---

Test system: batrachotoxin (BTX) binding site of the sodium channel
Test: Affinity for the batrachotoxin (BTX) binding site of the sodium channel, [3H]-batrachotoxinin A20 α-benzoate, rat cerebrocortex synaptosomes
Conditions: test concentration not given
READOUT_TYPE: BTX inhibition (rat) % inhibition (%)
Your answer should be a plain number; it is taken to be in %.

Illustrative cases are given below, each with its answer.
MOLECULE	BTX inhibition (rat) % inhibition / %
COc1ccc(CNC(=S)N2CCc3onc(C(=O)NC4CCCC4)c3C2)cc1 [Example 127]	74
CCOC(=O)CCNC(=O)c1noc2c1CN(C(=S)NCC1CCCCC1)CC2 [Example 134]	55
N#Cc1cccc(NC(=O)N2CCc3onc(C(=O)NCc4cccs4)c3C2)c1 [Example 12]	47
O=C(c1noc2c1CN(S(=O)(=O)c1ccc(Cl)c(Cl)c1)CC2)N1CCN(c2nccs2)CC1 [Example 140]	55
CC(CNC(=O)c1noc2c1CN(S(=O)(=O)c1cccs1)CC2)c1ccccc1 (centres unmarked) [Example 104]	50

Reported BTX inhibition (rat) % inhibition, molecule CC(NC(=S)N1CCc2onc(C(=O)NCCc3ccccc3)c2C1)c1ccccc1 (centres unmarked) [Example 132] : ____ 90

Follow-up entry: O=C(Nc1ccccc1)c1noc2c1CN(Cc1ccc3ccccc3c1Br)CC2 [Example 135] 61

Follow-up entry: O=C(NCCCc1ccccc1)c1noc2c1CN(S(=O)(=O)c1ccc(F)cc1)CC2 [Example 35] 59

Follow-up entry: COCCNC(=S)N1CCc2onc(C(=O)NCCc3ccccc3)c2C1 [Example 130] 68

Follow-up entry: CC(NC(=O)N1CCc2onc(C(=O)NCCc3ccccc3)c2C1)c1cccc2ccccc12 (centres unmarked) [Example 18] 75

Follow-up entry: CC(NC(=O)N1CCc2onc(C(=O)NCc3ccccc3)c2C1)c1ccccc1 (centres unmarked) [Example 150] 49

---

System: batrachotoxin (BTX) binding site of the sodium channel
Assay: Affinity for the batrachotoxin (BTX) binding site of the sodium channel, [3H]-batrachotoxinin A20 α-benzoate, rat cerebrocortex synaptosomes
Conditions: test concentration not given
READOUT_TYPE: BTX inhibition (rat) % inhibition (%)
Your answer should be a plain number; it is taken to be in %.

Illustrative cases are given below, each with its answer.
MOLECULE	BTX inhibition (rat) % inhibition (%)
O=C(NCCN1CCCC1)c1noc2c1CN(C(=O)COc1cccc(Cl)c1)CC2 [Example 94]	60
Cc1ccc(S(=O)(=O)N2CCc3onc(C(=O)NC4CCN(Cc5c(Cl)cccc5Cl)C4)c3C2)cc1 (stereo not shown) [Example 91]	61
O=C(NCc1ccccc1)c1noc2c1CN(C(=O)NCCc1ccccc1)CC2 [Example 10]	64
O=C(c1noc2c1CN(S(=O)(=O)c1cc(Cl)ccc1Cl)CC2)N1CCN(c2ccccc2Cl)CC1 [Example 110]	55

Under batrachotoxin (BTX) binding site of the sodium channel: BTX inhibition (rat) % inhibition value of O=C(NCC1CC1)c1noc2c1CN(C(=S)NCc1ccc(Cl)cc1)CC2 [Example 129] ? 53

Follow-up entry: O=C(NC1CCN(Cc2ccc(C(F)(F)F)cc2)C1)c1noc2c1CN(S(=O)(=O)c1ccccc1)CC2 (stereo not shown) [Example 103] 92

Follow-up entry: O=C(NC1CCCC1OCc1ccccc1)c1noc2c1CN(S(=O)(=O)c1cc(Cl)ccc1Cl)CC2 (stereo not shown) [Example 40] 65

Follow-up entry: O=C(O)CC1(CC(=O)N2CCc3onc(C(=O)Nc4ccccc4)c3C2)CCCC1 [Example 28] 60

Follow-up entry: O=C(c1noc2c1CN(S(=O)(=O)c1ccc(F)cc1)CC2)N1CC=C(c2ccc(F)cc2)CC1 [Example 42] 54

Follow-up entry: Cc1ccc(S(=O)(=O)N2CCc3onc(C(=O)NCc4ccc(S(N)(=O)=O)cc4)c3C2)cc1 [Example 157] 17

Follow-up entry: CCOc1ccc(NC(=O)N2CCc3onc(C(=O)NCc4ccc(F)cc4)c3C2)cc1 [Example 21] 68

Follow-up entry: CCCCOc1ccc(S(=O)(=O)N2CCc3onc(C(=O)NCC(C)C)c3C2)cc1 [Example 114] 58
